These measurements were taken from patent US7745422B2.

Overview of recorded pIC50 for various compounds
# Tested on: Dictyostelium discoideum
# testProtocol: D. discoideum cell growth inhibition
# Format: cell-based
# setupConditions: Table 4; read-out: (1) D. discoideum IC50
Just the number, please; pIC50 means minus log10 of the concentration in mol/L.

Below: 3 compounds and their reported pIC50.
compound	pIC50
O=P([O-])(O)C(O)(C[n+]1ccc(Cc2ccccc2)cc1)P(=O)(O)O (stereo not drawn)	4.92
CCc1ccc[n+](CC(O)(P(=O)([O-])O)P(=O)(O)O)c1 (stereo not drawn)	5.25
O=P([O-])(O)C(C[n+]1cc(F)cc(F)c1)P(=O)(O)O (stereo not drawn)	5.34

## Input Item under review: O=P([O-])(O)C(O)(C[n+]1ccc(-c2ccccc2)cc1)P(=O)(O)O (stereo not drawn) . Reported pIC50?
## Output 3.12

## Input Item under review: O=P([O-])(O)C(C[n+]1cccc(Cc2ccccc2)c1)P(=O)(O)O (stereo not drawn) . Reported pIC50?
## Output 5.52

## Input Item under review: O=P([O-])(O)C(C[n+]1ccc(C(F)(F)F)cc1)P(=O)(O)O (stereo not drawn) . Reported pIC50?
## Output 4.24

## Input Item under review: O=P([O-])(O)C(O)(C[n+]1cccc(-c2ccc(O)cc2)c1)P(=O)(O)O (stereo not drawn) . Reported pIC50?
## Output 5.54

## Input Item under review: O=Cc1ccc[n+](CC(P(=O)([O-])O)P(=O)(O)O)c1 (stereo not drawn) . Reported pIC50?
## Output 5.08

## Input Item under review: CCCOc1cccc(-c2ccc[n+](CC(P(=O)([O-])O)P(=O)(O)O)c2)c1 (stereo not drawn) . Reported pIC50?
## Output 5.39
